Examples of compounds with documented growth inhibition follow.
# method.notes: NCI Yeast Anticancer Drug Screen. Data for the sgs1 mgt1 strain (AID 161);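 also: 0% = growth of cultures given vehicle only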
# particulars: S. cerevisiae sgs1 mgt1 strain, at 5.0 µM (retest, dose inferred, filed as 0.5), stronger effect = higher value
Compounds without any hit were thinned out: in the full panel of roughly 79,000, 15% have a hit.
measurement.label: growth inhibition (%)

• Cn1c(-c2ccc(/C=N/NC(N)=NCCCCCCN=C(N)N/N=C/c3ccc(-c4c[n+]5ccccc5n4C)cc3)cc2)c[n+]2ccccc12 = 97
• O=C(NCCCCCCNC(=O)n1cc(F)c(=O)[nH]c1=O)NCCCOCCOCCOCCOCCOCCOCCOCCOCCOCCOCCOCCOCCOCCOCCOCCOCCOCCOCCOCCOCCOCCCNC(=O)C(O)C(O)C(O)C(O)CO (stereo not drawn) = 23
• O=[N+]([O-])/C(C(Cl)=C(Cl)Cl)=C(/Sc1ccccc1)N1CCOCC1 = -4
• S=C(NC(=S)Nc1ccc(Cl)cc1)Nc1ccc(Cl)cc1 = 5
• Cc1ccc2c(ccc(CC(=S)[S-])[n+]2C)c1 = 11
• FC(F)(F)c1nc(S)cc(=S)[nH]1 = 7
• CS(=O)(=O)c1snc(N)c1C#N = 17
• Cc1[nH]nc(-c2ccon2)c1N=O = 16
• CCOC(=O)C(C)(c1c(C)[nH]c2ccccc12)c1c(C)[nH]c2ccccc12 = 3
• CCCCCCN(CCCCCC)CCC(=O)c1ccc2cc(Br)c3ccccc3c2c1 = 75
• CC(=O)c1c2c(cc3c1CC1(C3)Cc3ccc4c(c3C1=O)CCC4)CCC2 (stereo not drawn) = 18
• CC1=CC2C(O)(CC(CO)=CC3C4C(C)(C)C4(OC(=O)c4ccccc4)C(OC(=O)c4ccccc4)C(C)C32O)C1=O (stereo not drawn) = 96
• O=C(/C=C\c1cc(Br)ccc1O)/C=C/c1cc(Br)ccc1O = 80
• O=C(CCN(Cc1ccccc1)Cc1ccccc1)c1ccc2ccccc2c1 = 59
• O=C1C=CC(=O)N1c1cccc(F)c1 = 93
• O=C1C2(Cl)C(Cl)=C(Cl)C1(Cl)C1(Cl)C(Cl)=C(Cl)C(=O)C21Cl (stereo not drawn) = 45
• COc1cc(N=Nc2cccc(S(N)(=O)=O)c2)c2ccccc2c1N = 2
• CSC(=S)N/N=C(\C)c1nccnc1C = 3
• COc1cc(C(c2cc3c(cc2O)OCO3)N2CCCCC2)cc(OC)c1OC (stereo not drawn) = -5
• CCN(CC)CCNCc1ccccc1 = -64
• Cc1occc1C(=S)Nc1ccc(Cl)c(C(=O)OCC(C)C)c1 = 34
• Nc1ccc(S(=O)(=O)Nc2nc3ccccc3nc2N2CCCCCC2)cc1 = 36
• O=C(O)c1ccccc1Cc1ccc2c(c1)Cc1ccccc1-2 = 6
• C/C=C(/CN/C(=C\[N+](=O)[O-])c1ccccc1)c1ccccc1 = 0
• Cc1c(N)cccc1[N+](=O)[O-] = -3
• COC(=O)c1cc2c(c(C(=O)OC)c1O)C(=O)C=CC2=O = 5
• Cc1c2cc(Cl)ccc2cc2c1ccc1ccccc12 = 2
• Nc1nccc(NCCCCCCNc2ccnc(N)n2)n1 = 8
• O=C(O)c1ccc(/C=C2\COc3ccccc3C2=O)cc1 = 13
• CCCCNCCCCCCCCCCCl = 79
• Clc1ccc2nc3c(c(N4CCOCC4)c2c1)CCCC3 = 94
• O=C(NCCCCCNC(=O)C12CC3CC(CC(C3)C1)C2)C12CC3CC(CC(C3)C1)C2 = 7
• NNC(=O)NN=C(c1ccccc1)c1ccccc1 = -3
• O=C1c2ccccc2-c2ccccc2C(=O)C1(Br)Br = 3
• C=C1CC(c2ccc(OCCCN3C(=O)c4ccccc4C3=O)c(OC)c2)OC1=O (stereo not drawn) = 1
• O=C(Nc1ccccc1)c1cc(Cl)ccc1O = 32
• N#CCCN(CCCN1CCOCC1)C(=S)Nc1cccc(C(F)(F)F)c1 = 41
• C/C(=N\NC(=S)N1CCN(Cc2ccccc2)CC1)c1ccccn1 = 12
• O[C@H]1[C@H]2c3cc4c(cc3CN3CCC(=C[C@@H]1O)[C@H]23)OCO4 = 23
• Cn1c2ccccc2c2c(C#N)c(C#N)c([N+](=O)[O-])cc21 = 9
• N=C(N)c1ccc(Nc2ccc(-c3cc4ccc(C(=N)N)cc4[nH]3)cc2)cc1 = 99
• O=C(Cc1ccccc1)c1ccc(O)c(F)c1 = 6
• CC(C)/C(Cl)=N\OC(=O)Nc1ccc(S(N)(=O)=O)cc1 = 2
